Origin of the recorded values: patent US20210206841A1

# Kd annotations
Molecular target: T1, tip-chimeric peptide IhfA5-mIhfB4NTHI (nontypeable Haemophilus influenzae …)
T1 construct: also called IHF(NTHI) tip chimeric peptide; IHFNTHI tip chimeric peptide
T1 peptide: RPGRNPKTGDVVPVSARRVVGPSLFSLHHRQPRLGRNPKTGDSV
Experiment: SPR Biacore 3000, peptide immobilized, HuMab as analyte
Numbers only; they are read as µM.

[[record]]
binder = "humanized anti-tip monoclonal antibody, heavy chain SEQ ID NO: 3 and light chain SEQ ID NO: 8 (antibody, V domains shown, also called H10212 (1F8.F1 Humanized HC3) + L10211 (1F8.F1 Humanized LC2)) VH: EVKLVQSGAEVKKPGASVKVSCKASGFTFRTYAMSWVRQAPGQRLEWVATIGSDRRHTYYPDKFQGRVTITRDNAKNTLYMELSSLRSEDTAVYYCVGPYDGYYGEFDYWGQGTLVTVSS VL: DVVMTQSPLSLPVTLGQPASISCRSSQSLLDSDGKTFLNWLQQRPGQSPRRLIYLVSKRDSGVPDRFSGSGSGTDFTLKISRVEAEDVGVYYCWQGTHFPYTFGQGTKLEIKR"
quantity_name = "Kd"
units_symbol = "µM"
reported = 0.007


Quick note, Kd for humanized anti-tip monoclonal antibody, heavy chain SEQ ID NO: 2 and light chain SEQ ID NO: 8 (antibody, V domains shown, also called H10211 (1F8.F1 Humanized HC2) + L10211 (1F8.F1 Humanized LC2)) VH: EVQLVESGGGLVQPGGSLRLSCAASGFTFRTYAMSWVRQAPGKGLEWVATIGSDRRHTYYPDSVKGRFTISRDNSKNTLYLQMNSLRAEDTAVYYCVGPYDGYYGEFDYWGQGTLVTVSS VL: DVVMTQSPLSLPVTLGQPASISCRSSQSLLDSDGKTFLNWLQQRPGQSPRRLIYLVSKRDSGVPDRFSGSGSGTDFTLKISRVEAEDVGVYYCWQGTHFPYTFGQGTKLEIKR landed at 0.013
